Biological target: AURKA (Homo sapiens, UniProt O14965)
Construct: endogenous in cells; host or cells: Jurkat cells
Sequence (O14965 1-403): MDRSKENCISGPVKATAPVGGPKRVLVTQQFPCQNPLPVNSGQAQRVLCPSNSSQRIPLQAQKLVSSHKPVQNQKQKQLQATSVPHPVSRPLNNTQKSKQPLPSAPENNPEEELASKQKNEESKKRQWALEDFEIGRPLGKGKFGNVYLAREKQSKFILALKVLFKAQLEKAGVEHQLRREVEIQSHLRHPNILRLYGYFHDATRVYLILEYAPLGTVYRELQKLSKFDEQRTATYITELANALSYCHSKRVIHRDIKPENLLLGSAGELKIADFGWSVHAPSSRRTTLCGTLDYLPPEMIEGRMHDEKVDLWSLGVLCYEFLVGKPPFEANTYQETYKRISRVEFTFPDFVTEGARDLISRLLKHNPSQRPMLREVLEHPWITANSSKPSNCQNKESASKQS
Type: cell-based
Details: 1 µM compound, Jurkat cells, 24 h, Table 2
Measured Parameter: Percentage of AURKA Degradation Induced by 1 µM Compound in Jurkat Cells

**Q:** Quick check: Percentage of AURKA Degradation Induced by 1 µM Compound in Jurkat Cells of `COc1ccc2c(c1)C(c1c(F)cccc1F)=NCc1cnc(Nc3ccc(C(=O)NC4CC5(CCN(c6ccc(N7CCC(=O)NC7=O)cn6)CC5)C4)cc3)nc1-2` ?
**A:** +++ (Degradation > 70%)

**Q:** Suppose we examine the compound `O=C1CCN(c2ccc(N3CCN(CCC(=O)Nc4ccc(Nc5ncc6c(n5)-c5ccc(Cl)cc5C(c5c(F)cccc5F)=NC6)cc4)CC3)cc2)C(=O)N1` ; what Percentage of AURKA Degradation Induced by 1 µM Compound in Jurkat Cells value has been reported?
**A:** +++ (Degradation > 70%)

---

Target: AURKA (Homo sapiens)
Construct: endogenous in cells; host or cells: Jurkat cells
Format: cell-based
Conditions: 100 nM compound, Jurkat cells, 24 h, Table 2
Measured Parameter: Percentage of AURKA Degradation Induced by 100 nM Compound in Jurkat Cells

Example molecules with recorded Percentage of AURKA Degradation Induced by 100 nM Compound in Jurkat Cells:
**Q:** Can you look up the measured Percentage of AURKA Degradation Induced by 100 nM Compound in Jurkat Cells of O=C1CCN(c2ccc(N3CCC(N4CCN(c5ccc(Nc6ncc7c(n6)-c6ccc(Cl)cc6C(c6c(F)cccc6F)=NC7)cc5)CC4)C(F)(F)C3)nc2)C(=O)N1 (stereo not drawn) [Compound A263] for me?
**A:** +++ (Degradation > 70%)

**Q:** Quick one: Percentage of AURKA Degradation Induced by 100 nM Compound in Jurkat Cells of O=C1CCN(c2ccc(N3CCOC4(CC(N5CCN(C67CC(Nc8ncc9c(n8)-c8ccc(Cl)cc8C(c8c(F)cccc8F)=NC9)(C6)C7)C(=O)C5)C4)C3)nc2)C(=O)N1 (single isomer, unassigned) [Compound A348] ?
**A:** +++ (Degradation > 70%)

**Q:** I would be grateful if you could share the reported Percentage of AURKA Degradation Induced by 100 nM Compound in Jurkat Cells for O=C1CCN(c2cncc(N3CCN(C4CN(c5cccc(Nc6ncc7c(n6)-c6ccc(Cl)cc6C(c6c(F)cccc6F)=NC7)c5)C4)CC3)c2C(F)F)C(=O)N1 [Compound A193] .
**A:** + (Degradation ≤ 30%)

**Q:** For the molecule shown here, O=C1CCN(c2ccc(C3CN(C4CN(C(=O)c5ccc(Nc6ncc7c(n6)-c6ccc(Cl)cc6C(c6c(F)cccc6F)=NC7)cc5)C4)C3)nc2)C(=O)N1 [Compound A120] , give the reported Percentage of AURKA Degradation Induced by 100 nM Compound in Jurkat Cells.
**A:** + (Degradation ≤ 30%)

**Q:** Suppose we examine the molecule O=C1CCN(c2ccc(N3CCC4(CC3)CC(N3CCN(C56CC(Nc7ncc8c(n7)-c7ccc(Cl)cc7C(c7c(F)cccc7F)=NC8)(C5)C6)CC3)CO4)nc2)C(=O)N1 (stereo not drawn) [Compound A361] ; what Percentage of AURKA Degradation Induced by 100 nM Compound in Jurkat Cells value has been reported?
**A:** +++ (Degradation > 70%)

**Q:** Field request: Percentage of AURKA Degradation Induced by 100 nM Compound in Jurkat Cells | item: O=C1CCN(c2ccc(N3CCC4(CC3)C[C@@H](N3CCN(c5ccc(Nc6ncc7c(n6)-c6ccc(Cl)cc6C(c6c(F)cccc6F)=NC7)cc5)CC3)CO4)nc2)C(=O)N1 [Compound A341]
**A:** +++ (Degradation > 70%)

**Q:** Percentage of AURKA Degradation Induced by 100 nM Compound in Jurkat Cells lookup needed for O=C1CCN(c2cncc(N3CC(CN4CCc5ccc(Nc6ncc7c(n6)-c6ccc(Cl)cc6C(c6c(F)cccc6F)=NC7)cc5C4)C3)c2)C(=O)N1 [Compound A209] , thanks.
**A:** +++ (Degradation > 70%)

**Q:** Given O=C1CCN(C23CCC(N4CCN(CCNC(=O)c5ccc(Nc6ncc7c(n6)-c6ccc(Cl)cc6C(c6c(F)cccc6F)=NC7)cc5)CC4)(CC2)CC3)C(=O)N1 [Compound A91] , state its recorded Percentage of AURKA Degradation Induced by 100 nM Compound in Jurkat Cells.
**A:** + (Degradation ≤ 30%)

Continuing:
**Q:** Need Percentage of AURKA Degradation Induced by 100 nM Compound in Jurkat Cells, item COc1cc(Nc2ncc3c(n2)-c2ccc(Cl)cc2C(c2c(F)cccc2OC)=NC3)ccc1N1CCN(C2CCN(c3ccc(N4CCC(=O)NC4=O)cn3)CC2)CC1 [Compound A256]
**A:** +++ (Degradation > 70%)

**Q:** What value of Percentage of AURKA Degradation Induced by 100 nM Compound in Jurkat Cells has been reported for the following molecule? COc1cccc(F)c1C1=NCc2cnc(Nc3ccc(N4CCN(C5COC6(CCN(c7ccc(N8CCC(=O)NC8=O)cn7)CC6)C5)CC4)cc3)nc2-c2ccc(Cl)cc21 (stereo not drawn) [Compound A363]
**A:** +++ (Degradation > 70%)

**Q:** Which Percentage of AURKA Degradation Induced by 100 nM Compound in Jurkat Cells is reported for this molecule? O=C1CCN(c2ccc(N3CCC4(CC3)CCN(C3CCN(c5ccc(Nc6ncc7c(n6)-c6ccc(Cl)cc6C(c6c(F)cccc6F)=NC7)cc5)CC3)CCO4)nc2)C(=O)N1 [Compound A355]
**A:** +++ (Degradation > 70%)

**Q:** What value of measured Percentage of AURKA Degradation Induced by 100 nM Compound in Jurkat Cells is listed for O=C1CCN(c2ccc(N3CCN(C(=O)C4CCN(C56CC(Nc7ncc8c(n7)-c7ccc(Cl)cc7C(c7c(F)cccc7F)=NC8)(C5)C6)C(=O)C4)CC3)nc2)C(=O)N1 (stereo not drawn) [Compound A284] ?
**A:** +++ (Degradation > 70%)

**Q:** Name the reported Percentage of AURKA Degradation Induced by 100 nM Compound in Jurkat Cells value associated with the molecule O=C1CCN(c2ccc(N3CC(C(=O)N4CCN(c5ccc(Nc6ncc7c(n6)-c6ccc(Cl)cc6C(c6c(F)cccc6F)=NC7)cc5)CC4)C3)nc2)C(=O)N1 [Compound A274]
**A:** +++ (Degradation > 70%)

**Q:** Give its Percentage of AURKA Degradation Induced by 100 nM Compound in Jurkat Cells value. Item: COc1ccc2c(c1)C(c1c(F)cccc1F)=NCc1cnc(Nc3ccc(C(=O)NC4CC5(CCN(c6ccc(N7CCC(=O)NC7=O)cn6)CC5)C4)cc3)nc1-2 [Compound A122]
**A:** +++ (Degradation > 70%)

**Q:** Field request: Percentage of AURKA Degradation Induced by 100 nM Compound in Jurkat Cells | item: O=C1CCN(c2ccc(N3CCN(C(=O)C4CCN(c5ccc(Nc6ncc7c(n6)-c6ccc(Cl)cc6C(c6c(F)cccc6F)=NC7)cc5)CC4)CC3)nc2)C(=O)N1 [Compound A277]
**A:** +++ (Degradation > 70%)

---

Molecular target: AURKA (Homo sapiens, UniProt O14965)
Construct: endogenous in cells; host or cells: Jurkat cells
Assay type: cell-based
Settings: 1 µM compound, Jurkat cells, 24 h, Table 2
Measured Parameter: Percentage of AURKA Degradation Induced by 1 µM Compound in Jurkat Cells

**Q:** Field request: Percentage of AURKA Degradation Induced by 1 µM Compound in Jurkat Cells | item: `O=C1CCN(c2ccc(N3CCN(C(=O)C4CCN(C56CC(Nc7ncc8c(n7)-c7ccc(Cl)cc7C(c7c(F)cccc7F)=NC8)(C5)C6)CC4)CC3)nc2)C(=O)N1`
**A:** +++ (Degradation > 70%)

**Q:** Can you look up the measured Percentage of AURKA Degradation Induced by 1 µM Compound in Jurkat Cells of `Cn1c(CN2CCN(c3ncc(N4CCC(=O)NC4=O)s3)CC2)cnc1-c1ccc(Nc2ncc3c(n2)-c2ccc(Cl)cc2C(c2c(F)cccc2F)=NC3)cc1` for me?
**A:** +++ (Degradation > 70%)

**Q:** Fill in the blank: the reported Percentage of AURKA Degradation Induced by 1 µM Compound in Jurkat Cells of `O=C1CCN(c2cccc(N3CC(CN4CCN(c5cccc(Nc6ncc7c(n6)-c6ccc(Cl)cc6C(c6c(F)cccc6F)=NC7)c5)CC4)C3)c2)C(=O)N1` is ____.
**A:** +++ (Degradation > 70%)
